Consider the following variants and their measured normalized RNA/DNA level without ligand (log10) readings.
B1: library; a variant is named by its letters at N, in order (parent)
chain: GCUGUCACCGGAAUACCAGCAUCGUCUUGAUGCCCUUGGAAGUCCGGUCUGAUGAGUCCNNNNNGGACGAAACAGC

- Variants of: B1
- Protocol description: normalized RNA/DNA level without ligand (relative to sTRSVctl = 100) (log10 (% of sTRSVctl)); higher = less ribozyme self-cleavage, higher mRNA level
- Condition notes: HEK293T, reporter: mCherry (pCS4076), ligand present: no

• GCUGUCACCGGAAUACCAGCAUCGUCUUGAUGCCCUUGGAAGUCCGGUCUGAUGAGUCCUAUUGGGACGAAACAGC [UAUUG] = 1.92
• GCUGUCACCGGAAUACCAGCAUCGUCUUGAUGCCCUUGGAAGUCCGGUCUGAUGAGUCCAUUAAGGACGAAACAGC [AUUAA] = 1.74
• GCUGUCACCGGAAUACCAGCAUCGUCUUGAUGCCCUUGGAAGUCCGGUCUGAUGAGUCCCCAGUGGACGAAACAGC [CCAGU] = 1.9
• GCUGUCACCGGAAUACCAGCAUCGUCUUGAUGCCCUUGGAAGUCCGGUCUGAUGAGUCCUGGAUGGACGAAACAGC [UGGAU] = 1.79
• GCUGUCACCGGAAUACCAGCAUCGUCUUGAUGCCCUUGGAAGUCCGGUCUGAUGAGUCCUGACAGGACGAAACAGC [UGACA] = 1.52
• GCUGUCACCGGAAUACCAGCAUCGUCUUGAUGCCCUUGGAAGUCCGGUCUGAUGAGUCCACGAAGGACGAAACAGC [ACGAA] = 1.51
• GCUGUCACCGGAAUACCAGCAUCGUCUUGAUGCCCUUGGAAGUCCGGUCUGAUGAGUCCAAUCUGGACGAAACAGC [AAUCU] = 1.87
• GCUGUCACCGGAAUACCAGCAUCGUCUUGAUGCCCUUGGAAGUCCGGUCUGAUGAGUCCAAAUUGGACGAAACAGC [AAAUU] = 1.82
• GCUGUCACCGGAAUACCAGCAUCGUCUUGAUGCCCUUGGAAGUCCGGUCUGAUGAGUCCCAGAAGGACGAAACAGC [CAGAA] = 1.2
• GCUGUCACCGGAAUACCAGCAUCGUCUUGAUGCCCUUGGAAGUCCGGUCUGAUGAGUCCAGGUCGGACGAAACAGC [AGGUC] = 1.87

What does the data say about its normalized RNA/DNA level without ligand (log10)? Entry: GCUGUCACCGGAAUACCAGCAUCGUCUUGAUGCCCUUGGAAGUCCGGUCUGAUGAGUCCAAACUGGACGAAACAGC [AAACU]
1.79

What value of normalized RNA/DNA level without ligand (log10) has been reported for the following variant? GCUGUCACCGGAAUACCAGCAUCGUCUUGAUGCCCUUGGAAGUCCGGUCUGAUGAGUCCAUAGGGGACGAAACAGC [AUAGG]
1.84

Report normalized RNA/DNA level without ligand (log10) for GCUGUCACCGGAAUACCAGCAUCGUCUUGAUGCCCUUGGAAGUCCGGUCUGAUGAGUCCUUACCGGACGAAACAGC [UUACC] please.
1.96

Given GCUGUCACCGGAAUACCAGCAUCGUCUUGAUGCCCUUGGAAGUCCGGUCUGAUGAGUCCGAGUUGGACGAAACAGC [GAGUU] , state its recorded normalized RNA/DNA level without ligand (log10).
1.67
